Assay system: His-tagged GFP-dmDcr1 (Drosophila, UniProt Q9VCU9 1-2249)
Sequence (Q9VCU9 whole entry): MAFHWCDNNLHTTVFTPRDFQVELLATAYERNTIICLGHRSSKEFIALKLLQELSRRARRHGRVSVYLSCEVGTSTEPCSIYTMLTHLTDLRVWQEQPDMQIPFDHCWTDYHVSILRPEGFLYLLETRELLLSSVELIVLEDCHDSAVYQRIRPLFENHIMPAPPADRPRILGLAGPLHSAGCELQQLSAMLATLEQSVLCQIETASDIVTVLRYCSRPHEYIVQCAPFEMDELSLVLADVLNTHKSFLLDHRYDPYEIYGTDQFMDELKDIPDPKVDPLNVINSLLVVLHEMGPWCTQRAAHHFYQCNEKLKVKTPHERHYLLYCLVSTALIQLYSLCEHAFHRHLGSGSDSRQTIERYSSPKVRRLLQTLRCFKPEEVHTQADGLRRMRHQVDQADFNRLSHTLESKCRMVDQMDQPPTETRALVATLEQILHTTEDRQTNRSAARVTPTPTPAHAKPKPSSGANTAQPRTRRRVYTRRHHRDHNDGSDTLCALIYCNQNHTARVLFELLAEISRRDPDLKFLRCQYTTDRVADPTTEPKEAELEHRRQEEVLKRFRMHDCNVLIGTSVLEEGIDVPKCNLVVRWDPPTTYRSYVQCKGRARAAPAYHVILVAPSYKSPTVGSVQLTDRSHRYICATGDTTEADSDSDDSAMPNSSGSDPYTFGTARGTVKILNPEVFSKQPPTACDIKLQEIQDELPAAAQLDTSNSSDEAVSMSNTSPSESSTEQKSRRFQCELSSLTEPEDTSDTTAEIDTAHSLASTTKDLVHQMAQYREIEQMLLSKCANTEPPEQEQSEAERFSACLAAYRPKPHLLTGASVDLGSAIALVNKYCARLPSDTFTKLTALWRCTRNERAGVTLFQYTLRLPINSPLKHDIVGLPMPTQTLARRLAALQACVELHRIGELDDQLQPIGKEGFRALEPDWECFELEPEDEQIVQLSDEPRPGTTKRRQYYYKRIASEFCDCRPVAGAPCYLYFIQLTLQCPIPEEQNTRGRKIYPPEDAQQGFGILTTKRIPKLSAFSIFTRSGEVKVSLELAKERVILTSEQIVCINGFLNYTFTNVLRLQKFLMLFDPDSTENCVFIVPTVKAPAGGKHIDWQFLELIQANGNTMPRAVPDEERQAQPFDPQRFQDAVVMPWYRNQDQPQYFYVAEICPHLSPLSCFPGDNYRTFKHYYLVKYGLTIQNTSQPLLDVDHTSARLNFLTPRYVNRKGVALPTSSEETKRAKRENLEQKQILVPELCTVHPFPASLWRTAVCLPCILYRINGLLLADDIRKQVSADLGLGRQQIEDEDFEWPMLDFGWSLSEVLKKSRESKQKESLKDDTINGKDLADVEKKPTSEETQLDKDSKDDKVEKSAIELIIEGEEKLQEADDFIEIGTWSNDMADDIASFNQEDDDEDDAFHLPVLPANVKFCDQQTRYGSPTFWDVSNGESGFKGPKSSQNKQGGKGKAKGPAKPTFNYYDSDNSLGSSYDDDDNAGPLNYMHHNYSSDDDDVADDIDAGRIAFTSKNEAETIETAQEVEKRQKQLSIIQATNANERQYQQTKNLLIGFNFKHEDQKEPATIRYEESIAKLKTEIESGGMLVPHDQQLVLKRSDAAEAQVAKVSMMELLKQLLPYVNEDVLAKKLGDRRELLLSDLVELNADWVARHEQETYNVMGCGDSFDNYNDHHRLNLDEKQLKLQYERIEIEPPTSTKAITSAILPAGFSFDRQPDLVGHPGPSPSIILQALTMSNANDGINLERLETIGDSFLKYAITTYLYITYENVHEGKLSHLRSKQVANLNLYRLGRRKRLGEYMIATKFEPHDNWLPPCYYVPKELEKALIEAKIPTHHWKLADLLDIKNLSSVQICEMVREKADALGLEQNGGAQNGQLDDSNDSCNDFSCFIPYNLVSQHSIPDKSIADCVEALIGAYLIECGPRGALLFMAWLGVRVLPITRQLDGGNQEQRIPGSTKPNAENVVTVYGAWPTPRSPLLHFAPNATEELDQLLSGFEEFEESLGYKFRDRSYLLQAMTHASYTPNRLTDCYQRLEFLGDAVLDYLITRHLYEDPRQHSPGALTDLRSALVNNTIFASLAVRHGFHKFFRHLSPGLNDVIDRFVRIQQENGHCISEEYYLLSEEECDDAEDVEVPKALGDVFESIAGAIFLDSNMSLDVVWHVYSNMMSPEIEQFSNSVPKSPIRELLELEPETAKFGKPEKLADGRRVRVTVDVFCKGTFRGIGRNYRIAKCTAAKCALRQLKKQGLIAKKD
Assay info: fluorescence cross-correlation spectroscopy
The entries below come with measured IC50 values attached.
Numeric only. Scale: nM

{"Binder": "Loqs-3, unlabeled, purified (domain or fragment, Drosophila, UniProt Q9VJY9 368-463, looked up) HKTLKNATGKKLLKLQKTCLKNNKIDYIKLLGEIATENQFEVTYVDIEEKTFSGQFQCLVQLSTLPVGVCHGSGPTAADAQRHAAQNALEYLKIMT", "IC50, nM": 9.3}

Reported IC50 for Loqs dsRBD3, unlabeled, purified (domain or fragment, Drosophila) IDYIKLLGEIATENQFEVTYVDIEEKTFSGQFQCLVQLSTLPVGVCHGSGPTAADAQRHAAQNALEYLKIMT : what is it?
104

All values here come from paper PMC4748816.
